Provenance of the data: ChEMBL document CHEMBL4840323

system name: beta-catenin-B-cell lymphoma 9 protein complex (Homo sapiens)
Sequence (P35222 whole entry, the tested form may be a part): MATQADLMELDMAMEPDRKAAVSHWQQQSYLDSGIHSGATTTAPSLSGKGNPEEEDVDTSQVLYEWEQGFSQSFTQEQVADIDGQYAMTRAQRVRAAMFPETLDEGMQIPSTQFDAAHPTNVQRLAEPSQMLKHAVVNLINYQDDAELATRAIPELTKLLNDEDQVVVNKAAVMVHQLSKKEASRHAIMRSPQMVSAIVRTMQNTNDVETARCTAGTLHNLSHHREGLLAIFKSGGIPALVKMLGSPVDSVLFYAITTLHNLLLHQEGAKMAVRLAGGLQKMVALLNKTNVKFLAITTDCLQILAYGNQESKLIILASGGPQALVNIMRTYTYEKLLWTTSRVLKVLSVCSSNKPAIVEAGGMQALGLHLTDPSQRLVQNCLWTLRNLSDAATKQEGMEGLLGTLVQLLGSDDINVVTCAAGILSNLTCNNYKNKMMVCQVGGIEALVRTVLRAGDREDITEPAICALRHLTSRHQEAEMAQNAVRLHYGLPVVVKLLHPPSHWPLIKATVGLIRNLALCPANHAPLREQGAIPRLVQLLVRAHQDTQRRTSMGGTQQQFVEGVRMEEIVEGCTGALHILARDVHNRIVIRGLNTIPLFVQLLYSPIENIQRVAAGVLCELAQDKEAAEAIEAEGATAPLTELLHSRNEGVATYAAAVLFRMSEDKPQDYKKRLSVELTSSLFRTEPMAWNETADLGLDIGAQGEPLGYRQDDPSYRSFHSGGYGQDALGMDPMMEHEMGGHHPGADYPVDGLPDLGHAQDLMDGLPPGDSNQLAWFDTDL
Sequence (O00512 whole entry, further chain, the tested form may be a part): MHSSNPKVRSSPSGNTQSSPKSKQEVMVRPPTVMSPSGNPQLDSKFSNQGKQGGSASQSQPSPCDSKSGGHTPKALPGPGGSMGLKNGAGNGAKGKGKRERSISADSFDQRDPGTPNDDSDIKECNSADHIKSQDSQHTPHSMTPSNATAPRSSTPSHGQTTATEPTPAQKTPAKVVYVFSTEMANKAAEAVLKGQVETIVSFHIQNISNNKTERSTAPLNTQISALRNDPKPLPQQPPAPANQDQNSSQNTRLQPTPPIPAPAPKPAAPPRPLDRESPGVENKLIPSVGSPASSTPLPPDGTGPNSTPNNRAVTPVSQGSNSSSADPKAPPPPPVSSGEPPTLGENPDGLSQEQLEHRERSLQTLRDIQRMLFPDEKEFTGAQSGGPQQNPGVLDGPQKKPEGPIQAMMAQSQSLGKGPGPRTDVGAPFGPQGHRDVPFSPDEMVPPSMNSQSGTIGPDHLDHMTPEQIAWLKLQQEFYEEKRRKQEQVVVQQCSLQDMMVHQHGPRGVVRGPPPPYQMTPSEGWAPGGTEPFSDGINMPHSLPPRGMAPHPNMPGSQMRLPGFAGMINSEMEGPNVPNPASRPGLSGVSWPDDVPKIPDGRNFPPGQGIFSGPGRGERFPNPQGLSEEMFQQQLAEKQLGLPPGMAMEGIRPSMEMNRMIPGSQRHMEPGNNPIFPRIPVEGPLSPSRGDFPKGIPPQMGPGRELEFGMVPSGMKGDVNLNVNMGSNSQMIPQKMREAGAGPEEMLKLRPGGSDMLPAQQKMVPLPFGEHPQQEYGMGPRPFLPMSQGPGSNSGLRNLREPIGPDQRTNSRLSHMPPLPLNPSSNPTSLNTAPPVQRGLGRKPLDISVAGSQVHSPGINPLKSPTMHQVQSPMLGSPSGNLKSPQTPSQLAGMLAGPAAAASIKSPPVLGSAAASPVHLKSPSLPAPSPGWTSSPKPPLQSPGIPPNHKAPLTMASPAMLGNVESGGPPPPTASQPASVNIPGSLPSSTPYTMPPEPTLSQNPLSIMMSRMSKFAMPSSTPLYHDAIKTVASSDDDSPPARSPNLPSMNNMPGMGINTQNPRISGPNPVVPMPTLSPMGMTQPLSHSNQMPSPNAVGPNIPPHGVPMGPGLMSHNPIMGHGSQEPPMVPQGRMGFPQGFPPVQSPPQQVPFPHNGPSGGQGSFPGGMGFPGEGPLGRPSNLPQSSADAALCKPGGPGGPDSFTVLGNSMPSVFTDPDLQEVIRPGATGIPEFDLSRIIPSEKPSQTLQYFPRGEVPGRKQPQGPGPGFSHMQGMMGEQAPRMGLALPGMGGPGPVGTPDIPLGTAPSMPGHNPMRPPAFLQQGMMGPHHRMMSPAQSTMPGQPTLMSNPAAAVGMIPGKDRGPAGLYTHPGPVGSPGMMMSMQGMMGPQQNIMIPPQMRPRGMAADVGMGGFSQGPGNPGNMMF
assay summary: Inhibition of N-terminal 6-His-tagged beta-catenin (1 to 781 residues) (unknown origin) expressed in Escherichia coli BL21 (DE3)-N-terminal biotinylated human BCL9 (350 to 375 residues) protein-protein interaction incubated for 1 hr by Alphascreen assay
Decision: Ki beneath 30 µM gives 1 (yes); Ki meeting or exceeding 30 µM gives 0 (no).

Asked: Lab log: compare recorded Ki with 30 µM; is it strictly lower for CC(C)(Oc1cccc(N2CCC[C@@H](C(=O)N(Cc3ccc(C4CCCCC4)cc3)C3CC3)C2)c1)C(=O)N1CCNCC1 ?
Given back: 1 (yes)

Asked: Lab log: compare recorded Ki with 30 µM; is it strictly lower for CC(C)(Oc1cccc(N2CCC[C@@H](C(=O)N(Cc3ccc(-c4ccncc4)cc3)C3CC3)C2)c1)C(=O)N1CCNCC1 ?
Given back: 0 (no)

Asked: Lab log: compare recorded Ki with 30 µM; is it strictly lower for Cn1cc(-c2ccc(CN(C(=O)[C@@H]3CCCN(c4cccc(OC(C)(C)C(=O)N5CCNCC5)c4)C3)C3CC3)cc2)cn1 ?
Given back: 0 (no)

Asked: Lab log: compare recorded Ki with 30 µM; is it strictly lower for CC(C)c1ccc(CNC(=O)[C@@H]2CCCN(c3cccc(OC(C)(C)C(=O)O)c3)C2)cc1 ?
Given back: 0 (no)

Asked: Lab log: compare recorded Ki with 30 µM; is it strictly lower for CC(C)(Oc1cccc(N2CCC[C@@H](C(=O)N(Cc3ccc(C(C)(C)C)cc3)C3CC3)C2)c1)C(=O)N1CCNCC1 ?
Given back: 1 (yes)

Asked: Lab log: compare recorded Ki with 30 µM; is it strictly lower for CC(C)c1ccc(CNC(=O)[C@H]2CCCN(c3cccc(OC(C)(C)C(=O)O)c3)C2)cc1 ?
Given back: 0 (no)

Asked: Lab log: compare recorded Ki with 30 µM; is it strictly lower for CN1CCN(C(=O)C(C)(C)Oc2cccc(N3CCC[C@@H](C(=O)N(Cc4ccc(-c5cn[nH]c5)cc4)C4CC4)C3)c2)CC1 ?
Given back: 0 (no)

Asked: Lab log: compare recorded Ki with 30 µM; is it strictly lower for CC(C)(Oc1cccc(N2CCC[C@@H](C(=O)N(Cc3ccc(-c4ccccn4)cc3)C3CC3)C2)c1)C(=O)N1CCNCC1 ?
Given back: 0 (no)
